Entry source: patent US20200024330A1

# MEASURED TARGET: HIV-1 JR-CSF Env N332A (HIV-1 isolate JR-CSF) (UniProt P20871)
# TEST PROTOCOL: cell-based or functional assay

BINDER: PGT-125 (antibody, V domains shown) VH: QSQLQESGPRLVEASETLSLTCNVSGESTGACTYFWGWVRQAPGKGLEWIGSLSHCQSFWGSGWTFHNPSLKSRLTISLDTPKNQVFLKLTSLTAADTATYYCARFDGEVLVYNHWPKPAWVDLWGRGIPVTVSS VL: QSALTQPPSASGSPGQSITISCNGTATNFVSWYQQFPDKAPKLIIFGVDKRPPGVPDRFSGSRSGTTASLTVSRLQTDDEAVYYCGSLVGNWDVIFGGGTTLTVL
UNIT OF MEASUREMENT: fold
COMPARISON SYMBOL: =
Fold IC50 increase relative to wild-type: 2
//
BINDER: PGT-130 (antibody, V domains shown) VH: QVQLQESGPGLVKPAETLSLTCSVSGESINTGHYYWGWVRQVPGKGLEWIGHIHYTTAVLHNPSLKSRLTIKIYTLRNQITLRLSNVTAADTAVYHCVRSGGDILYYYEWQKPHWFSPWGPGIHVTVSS VL: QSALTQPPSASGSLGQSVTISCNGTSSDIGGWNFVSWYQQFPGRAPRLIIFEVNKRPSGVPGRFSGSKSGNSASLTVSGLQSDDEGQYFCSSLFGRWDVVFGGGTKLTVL
UNIT OF MEASUREMENT: fold
COMPARISON SYMBOL: =
Fold IC50 increase relative to wild-type: 0.6
//
BINDER: PGT-127 (antibody, V domains shown) VH: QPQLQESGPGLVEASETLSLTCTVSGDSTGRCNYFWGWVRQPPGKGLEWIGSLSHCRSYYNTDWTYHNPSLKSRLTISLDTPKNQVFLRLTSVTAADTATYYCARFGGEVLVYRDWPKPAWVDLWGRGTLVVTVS VL: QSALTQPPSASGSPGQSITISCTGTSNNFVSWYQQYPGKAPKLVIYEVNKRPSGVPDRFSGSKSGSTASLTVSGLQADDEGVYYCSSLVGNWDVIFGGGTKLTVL
UNIT OF MEASUREMENT: fold
COMPARISON SYMBOL: >
Fold IC50 increase relative to wild-type: 100
//
BINDER: PGT-123 (antibody, V domains shown) VH: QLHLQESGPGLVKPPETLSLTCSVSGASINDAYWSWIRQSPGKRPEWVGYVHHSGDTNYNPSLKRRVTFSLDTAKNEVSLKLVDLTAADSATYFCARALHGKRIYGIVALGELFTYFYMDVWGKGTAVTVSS VL: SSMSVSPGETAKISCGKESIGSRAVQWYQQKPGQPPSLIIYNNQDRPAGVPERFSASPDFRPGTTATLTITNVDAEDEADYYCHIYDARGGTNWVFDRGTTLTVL
UNIT OF MEASUREMENT: fold
COMPARISON SYMBOL: >
Fold IC50 increase relative to wild-type: 200
//
BINDER: PGT-135 (antibody, V domains shown) VH: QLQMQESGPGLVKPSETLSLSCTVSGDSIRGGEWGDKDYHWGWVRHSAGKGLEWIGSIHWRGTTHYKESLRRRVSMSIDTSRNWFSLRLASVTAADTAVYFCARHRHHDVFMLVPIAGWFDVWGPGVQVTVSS VL: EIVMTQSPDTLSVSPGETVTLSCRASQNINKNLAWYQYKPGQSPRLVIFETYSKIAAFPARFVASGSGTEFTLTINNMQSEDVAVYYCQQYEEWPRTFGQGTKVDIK
UNIT OF MEASUREMENT: fold
COMPARISON SYMBOL: >
Fold IC50 increase relative to wild-type: 250
